Numbers sourced from patent US20080221116A1.

- Test target: α1a-AR (Homo sapiens, UniProt P35348)
- Construct: expressed in transfected cells; host or cells: COS-7 cells (African Green monkey kidney), membranes
- Run description: α1-Adrenergic Receptor Binding Assay, 125I-HEAT radio-ligand binding, transfected COS-7 cell membranes, α1a subtype
- Cond: average value, COS-7 membranes, read-out: Alpha 1 Ki α1a (1) Average Value
Observed property: pKi
When answering, recall that pKi equals minus log10 of the concentration in mol/L, and write that number alone.

# Molecule, pKi
rows = [
    ("CC(C)Oc1ccccc1N1CCN(CC2CC(C(=O)N3CCc4ccccc43)=NO2)CC1 (single isomer, unassigned) [Compound 37]", 9.27),
    ("CC(C)Oc1ccccc1N1CCN(CC2CC(C(=O)N3CCC(Oc4ccc(Cl)cc4)CC3)=NO2)CC1 (stereo not shown) [Compound 34]", 7.40),
    ("CC(C)Oc1ccccc1N1CCN(CC2CC(C(=O)N3CCc4cc(F)ccc43)=NO2)CC1 (stereo not shown) [Compound 20]", 8.65),
    ("CC(C)Oc1ccccc1N1CCN(CC2CC(C(=O)N3CC(C)(C)c4cc(Br)ccc43)=NO2)CC1 (single isomer, unassigned) [Compound 43]", 6.50),
    ("CC(C)Oc1ccccc1N1CCN(CC2CC(CN3CCc4ccccc43)=NO2)CC1 (stereo not shown) [Compound 4]", 8.72),
    ("COc1cccc(CNc2ccc3c(c2)N(CC2=NOC(CN4CCN(c5ccccc5OC(C)C)CC4)C2)CC3)c1 (stereo not shown) [Compound 9]", 7.47),
]

Shift focus to the following entry.
GET pKi where system = α1a-AR (Homo sapiens, UniProt P35348) and item = CC(C)Oc1ccccc1N1CCN(CC2CC(C(=O)N3CCC(C(=O)c4ccc(F)cc4)CC3)=NO2)CC1 (single isomer, unassigned) [Compound 41]
6.62

---

- Test target: α1b-AR (Homo sapiens)
- Construct: expressed in transfected cells; host or cells: COS-7 cells (African Green monkey kidney), membranes
- Sequence (P35368 1-520): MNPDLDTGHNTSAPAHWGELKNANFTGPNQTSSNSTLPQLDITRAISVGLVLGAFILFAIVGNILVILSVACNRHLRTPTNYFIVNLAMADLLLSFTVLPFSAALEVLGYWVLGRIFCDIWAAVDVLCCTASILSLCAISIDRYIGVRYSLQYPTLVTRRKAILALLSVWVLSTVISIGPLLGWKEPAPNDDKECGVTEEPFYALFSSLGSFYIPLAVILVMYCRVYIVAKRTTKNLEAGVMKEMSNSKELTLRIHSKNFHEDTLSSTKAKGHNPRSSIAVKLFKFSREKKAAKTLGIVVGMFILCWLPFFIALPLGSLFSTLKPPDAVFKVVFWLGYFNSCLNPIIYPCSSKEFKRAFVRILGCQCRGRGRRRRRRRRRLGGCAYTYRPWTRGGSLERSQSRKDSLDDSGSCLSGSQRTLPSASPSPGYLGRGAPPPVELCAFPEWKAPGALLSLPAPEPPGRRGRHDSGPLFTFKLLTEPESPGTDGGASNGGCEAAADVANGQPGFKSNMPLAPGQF
- Run description: α1-Adrenergic Receptor Binding Assay, 125I-HEAT radio-ligand binding, transfected COS-7 cell membranes, α1b subtype
- Cond: average value, COS-7 membranes, read-out: Alpha 1 Ki α1b (1) Average Value
Under this convention, 1 denotes Ki strictly below 200 nM and -1 denotes Ki at or above 200 nM.

# Compound, Group label
data = [
    ("CC(C)Oc1ccccc1N1CCN(CC2CC(CN3CCc4ccc(NCc5ccccc5F)cc43)=NO2)CC1 (stereo not shown) [Compound 8]", -1),
]

We now examine a further compound.
Record CC(C)Oc1ccccc1N1CCN(CC2CC(C(=O)N3CCC(S(=O)(=O)c4ccccc4)CC3)=NO2)CC1 (stereo not shown) [Compound 30] : is its Ki strictly below 200 nM?
1

---

- Test target: α1a-AR (Homo sapiens)
- Construct: expressed in transfected cells; host or cells: COS-7 cells (African Green monkey kidney), membranes
- Sequence (P35348 1-466): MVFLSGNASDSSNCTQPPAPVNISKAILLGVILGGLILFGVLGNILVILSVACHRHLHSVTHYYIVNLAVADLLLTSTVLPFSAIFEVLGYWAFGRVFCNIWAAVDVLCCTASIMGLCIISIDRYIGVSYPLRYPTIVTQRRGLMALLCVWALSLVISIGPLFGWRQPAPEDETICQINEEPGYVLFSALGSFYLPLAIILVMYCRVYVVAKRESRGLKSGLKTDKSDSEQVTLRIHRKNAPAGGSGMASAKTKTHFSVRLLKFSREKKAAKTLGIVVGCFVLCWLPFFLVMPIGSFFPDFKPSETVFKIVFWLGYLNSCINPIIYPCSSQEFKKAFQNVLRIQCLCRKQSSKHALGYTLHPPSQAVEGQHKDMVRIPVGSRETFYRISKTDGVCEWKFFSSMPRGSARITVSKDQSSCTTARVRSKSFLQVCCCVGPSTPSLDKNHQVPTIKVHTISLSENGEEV
- Run description: α1-Adrenergic Receptor Binding Assay, 125I-HEAT radio-ligand binding, transfected COS-7 cell membranes, α1a subtype
- Cond: average value, COS-7 membranes, read-out: Alpha 1 Ki α1a (1) Average Value
- Procedure: Membranes were prepared from COS-7 cells (African Green monkey kidney SV40-transformed cells) that had been transfected with one of the three α1-AR subtypes by the following method: COS cells from ten 100 mm tissue culture plates were scraped into a 5 ml volume of TE (a mixture of 50 mM tris(hydroxymethyl)aminomethane hydrochloride (Tris-HCl) and 5 mM ethylenediaminetetraacetic acid (EDTA) at pH 7.4). […] The Ki values (in nM) shown in Table 1 were determined using GraphPad Prism software.
pKi: −log10 of the molar value.
Rule: pKi of 8 or more gives label 1; anything lower gives label 0.

Consider the worked cases shown below.
# Compound, Group label
data = [
    ("CC(C)Oc1ccccc1N1CCN(CC2CC(C(=O)N3CCc4ccc(N)cc43)=NO2)CC1 (stereo not shown)", "label 1"),
    ("CC(C)Oc1ccccc1N1CCN(CC2CC(C(=O)N3CCC(S(=O)(=O)c4ccccc4)CC3)=NO2)CC1 (stereo not shown)", "label 1"),
    ("CC(C)Oc1ccccc1N1CCN(CC2CC(C(=O)N3CCc4ccccc43)=NO2)CC1 (single isomer, unassigned) [Compound 36]", "label 0"),
    ("CC(C)Oc1ccccc1N1CCN(CC2CC(C(=O)N3CCCC3)=NO2)CC1 (stereo not shown)", "label 1"),
]

Test whether the compound CC(=O)N1CCc2cc(NC(=O)C3=NOC(CN4CCN(c5ccccc5OC(C)C)CC4)C3)ccc21 (stereo not shown) records pKi of 8 or higher.
label 1

---

- Test target: α1d-AR (Homo sapiens, UniProt P25100)
- Construct: expressed in transfected cells; host or cells: COS-7 cells (African Green monkey kidney), membranes
- Sequence (P25100 1-572): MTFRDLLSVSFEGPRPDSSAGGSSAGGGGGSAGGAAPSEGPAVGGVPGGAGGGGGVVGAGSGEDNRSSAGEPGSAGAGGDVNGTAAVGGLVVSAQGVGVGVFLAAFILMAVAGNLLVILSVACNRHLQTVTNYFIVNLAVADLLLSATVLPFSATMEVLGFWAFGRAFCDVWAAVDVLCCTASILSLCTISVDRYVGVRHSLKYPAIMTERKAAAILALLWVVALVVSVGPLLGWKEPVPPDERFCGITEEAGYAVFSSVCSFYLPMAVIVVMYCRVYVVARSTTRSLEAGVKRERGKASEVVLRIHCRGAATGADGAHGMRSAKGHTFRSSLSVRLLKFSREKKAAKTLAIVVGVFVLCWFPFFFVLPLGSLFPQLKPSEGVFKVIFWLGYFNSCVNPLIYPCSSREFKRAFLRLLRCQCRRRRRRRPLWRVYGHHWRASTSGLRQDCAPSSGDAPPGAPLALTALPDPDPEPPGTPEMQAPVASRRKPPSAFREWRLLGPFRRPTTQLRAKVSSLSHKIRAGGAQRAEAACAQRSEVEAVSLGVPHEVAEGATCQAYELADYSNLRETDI
- Run description: α1-Adrenergic Receptor Binding Assay, 125I-HEAT radio-ligand binding, transfected COS-7 cell membranes, α1d subtype
- Cond: average value, COS-7 membranes, read-out: Alpha 1 Ki α1d (1) Average Value
pKi: −log10 of the molar value.
Rule: pKi of 8 or more gives True; anything lower gives False.

Consider the worked cases shown below.
# Molecule, Test target, Group label
records = [
    ("COc1cccc(CNc2ccc3c(c2)N(CC2=NOC(CN4CCN(c5ccccc5OC(C)C)CC4)C2)CC3)c1 (stereo not drawn)", "α1d-AR (Homo sapiens, UniProt P25100)", "False"),
    ("CC(C)Oc1ccccc1N1CCN(CC2CC(C(=O)N3CCc4ccccc43)=NO2)CC1 (single isomer, unassigned) [Compound 37]", "α1d-AR (Homo sapiens, UniProt P25100)", "True"),
    ("CC(C)Oc1ccccc1N1CCN(CC2CC(CN3CCc4ccc(NCc5ccccc5F)cc43)=NO2)CC1 (stereo not drawn)", "α1d-AR (Homo sapiens, UniProt P25100)", "False"),
    ("CC(C)Oc1ccccc1N1CCN(CC2CC(C(=O)N3CCC(Oc4ccc(Cl)cc4)CC3)=NO2)CC1 (stereo not drawn)", "α1d-AR (Homo sapiens, UniProt P25100)", "False"),
    ("CC(C)Oc1ccccc1N1CCN(CC2CC(C(=O)N3CCc4ccc([N+](=O)[O-])cc43)=NO2)CC1 (stereo not drawn)", "α1d-AR (Homo sapiens, UniProt P25100)", "True"),
    ("CC(C)Oc1ccccc1N1CCN(CC2CC(C(=O)N3CCc4cc(F)ccc43)=NO2)CC1 (stereo not drawn)", "α1d-AR (Homo sapiens, UniProt P25100)", "True"),
]

We now examine a further molecule.
Test whether the molecule CC(C)Oc1ccccc1N1CCN(CC2CC(CN3CCCCC3)=NO2)CC1 (stereo not drawn) records pKi of 8 or higher.
False
